Experiment: Selectivity index, ratio of CC50 for human HEL cells to EC50 for antiviral activity against thymidine kinase positive Varicella zoster virus OKA infected in human HEL cells
Assay type: toxicity, cell-based
Details: read-out: Ratio CC50/EC50
VALUE KIND: selectivity ratio
Respond numerically, and do not add a unit to the figure.

Enquiry: Give me measured selectivity ratio, please, for this molecule: C[C@H](NP(=O)(OC[C@@]1(F)O[C@@H](n2ccc(N)nc2=O)C(F)(F)[C@@H]1O)Oc1ccccc1)C(=O)OCc1ccccc1 (some centres undefined)
Return: 36

Enquiry: Return the recorded selectivity ratio value; entry: C[C@H](NP(=O)(OC[C@H]1O[C@@H](n2ccc(N)nc2=O)C(F)(F)[C@@H]1O)Oc1ccccc1)C(=O)OCc1ccccc1 (some centres undefined) [FOSGEMCITABINE PALABENAMIDE]
Return: 4

Enquiry: Indicate its recorded selectivity ratio; the molecule in question is `Nc1ccn([C@@H]2O[C@](F)(CO)[C@@H](O)C2(F)F)c(=O)n1`
Return: 2
